All figures here come from patent US20040024024A1.

- TESTED TARGET: Human recombinant MMP-13 (Homo sapiens)
- Construct: made in house; host or cells: baculovirus / insect cells
- ASSAY SUMMARY: In vitro MMP inhibition, IC50 determination (fluorogenic substrate I)
- Assay type: biochemical
- RECORDED CONDITIONS: value outside parentheses (Ki in parenthesis)
Quick reference for log10 IC50 among some compounds
Recall that a logarithmic scale is used here: each number is log10 of IC50 in nM.

Previously resolved entries follow.
Record lookup: for Human recombinant MMP-13 (Homo sapiens), what log10 IC50 belongs to COc1ccc(C(=O)N2CC[C@@H](Oc3ccc(S(=O)(=O)C4(C(=O)NO)CCOCC4)cc3)C2)cc1OC [Example 426] ? 3.71

For CC(C)(C)c1ccc(C(=O)CCCOc2ccc(S(=O)(=O)C3(C(=O)NO)CCOCC3)cc2)cc1 [Example 355] then? 0.04

Same question, COc1ccc(OC)c(S(=O)(=O)NCC(CCl)Oc2ccc(S(=O)(=O)C3(C(=O)NO)CCOCC3)cc2)c1 (stereo not shown) [Example 485] this time 1.81

Further cases:
Reported log10 IC50 for Human recombinant MMP-13 (Homo sapiens), given CC(=O)N1CC[C@@H](Oc2ccc(S(=O)(=O)C3(C(=O)NO)CCOCC3)cc2)C1 [Example 427] ? 2.06

Now consider N#Cc1cccc(C(=O)NCCCOc2ccc(S(=O)(=O)C3(C(=O)NO)CCOCC3)cc2)c1 [Example 367] and answer again. 0.65

Record: COc1ccc(C(=O)NCCOc2ccc(S(=O)(=O)C3(C(=O)NO)CCOCC3)cc2)cc1 [Example 393] 1.65

Also, N#Cc1ccc(N2CCN(CCCOc3ccc(S(=O)(=O)C4(C(=O)NO)CCOCC4)cc3)C2=O)cc1 [Example 307] please. 0.65
